- Test System: human RXFP1 (Homo sapiens, UniProt Q9HBX9)
- Construct: expressed in transfected cells
- Sequence (Q9HBX9 1-757): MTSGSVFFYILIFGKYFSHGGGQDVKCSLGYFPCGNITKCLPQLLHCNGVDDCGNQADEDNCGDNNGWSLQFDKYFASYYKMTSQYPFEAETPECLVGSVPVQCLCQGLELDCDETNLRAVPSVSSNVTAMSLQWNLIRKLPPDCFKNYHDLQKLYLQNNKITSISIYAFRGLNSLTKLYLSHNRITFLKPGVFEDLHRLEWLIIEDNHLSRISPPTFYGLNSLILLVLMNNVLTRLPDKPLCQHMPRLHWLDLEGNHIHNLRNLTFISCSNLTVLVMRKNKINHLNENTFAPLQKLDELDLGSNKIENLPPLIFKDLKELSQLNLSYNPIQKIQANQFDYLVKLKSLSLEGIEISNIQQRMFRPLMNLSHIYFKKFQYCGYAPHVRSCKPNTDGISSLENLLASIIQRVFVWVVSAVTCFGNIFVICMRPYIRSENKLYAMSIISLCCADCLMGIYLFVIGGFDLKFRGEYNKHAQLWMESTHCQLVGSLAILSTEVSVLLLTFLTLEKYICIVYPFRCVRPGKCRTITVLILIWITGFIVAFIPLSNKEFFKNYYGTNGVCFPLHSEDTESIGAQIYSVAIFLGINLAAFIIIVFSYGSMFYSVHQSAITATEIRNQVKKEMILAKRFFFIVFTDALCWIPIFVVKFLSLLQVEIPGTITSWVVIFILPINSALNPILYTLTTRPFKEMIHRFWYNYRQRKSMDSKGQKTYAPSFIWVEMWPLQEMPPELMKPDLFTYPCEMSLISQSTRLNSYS
- Test Description: RXFP1 cAMP assay (hRXFP1 HEK293 cAMP assay, HTRF)
- Type: cell-based
- Condition Description: HEK293 cells stably expressing human RXFP1, 30 min at room temperature, read-out: cAMP hRXFP1 HEK293 Assay EC50
pEC50: −log10 of the molar value.
Measured Quantity: pEC50

// worked examples, pEC50 included
Molecule	Test System	pEC50
COc1ccc(C2=NOC3CC(O)(C(F)(F)F)CC23)cc1C(=O)N[C@H]1[C@@H](C(=O)N[C@H](C)C2(C)CC2)[C@H]2CC[C@@H]1/C2=C\C1CC1 (stereo partly shown) [compound 859]	human RXFP1 (Homo sapiens, UniProt Q9HBX9)	8.74
COc1ccc(C2=NOC3CC(C(C)(C)O)CC23)cc1C(=O)N[C@H]1[C@@H](C(=O)Nc2ccc(F)c(C(F)(F)F)c2)[C@H]2CC[C@@H]1/C2=C\C1CC1 (single isomer, unassigned) [compound 462]	human RXFP1 (Homo sapiens, UniProt Q9HBX9)	8.52

[a] COc1ccc(-c2cc(C(O)C(=O)O)ccc2F)cc1C(=O)N[C@H]1[C@@H](C(=O)Nc2ccc(F)c(C(F)(F)F)c2)[C@H]2CC[C@@H]1/C2=C\CC1CC(F)(F)C1 (stereo partly shown) [Example 352]
[b] COc1ccc(-c2cc(C(NC(=O)C3CCOCC3)C(=O)O)ccc2F)cc1C(=O)N[C@@H]1C2CCC(/C2=C/C(F)(F)F)[C@@H]1C(=O)Nc1ccc(F)c(C(F)(F)F)c1 (stereo partly shown) [compound 239]
[c] COc1ccc(-c2cc(S(C)(=O)=O)ccc2F)cc1C(=O)N[C@H]1[C@@H](C(=O)Nc2ccc(F)c(C(F)(F)F)c2)[C@H]2CC[C@@H]1/C2=C\C1CC1 [compound 899]
[d] COc1ccc(N2CCC(NC(=O)OC(C)(C)C)C2)cc1C(=O)N[C@@H]1C2CCC(/C2=C/C(F)(F)F)[C@@H]1C(=O)Nc1ccc(F)c(C(F)(F)F)c1 (stereo partly shown) [compound 334]
[e] COc1ccc(C2=NOC(CO)C2)cc1C(=O)N[C@@H]1C2CCC(/C2=C/C2CCC2)[C@@H]1C(=O)Nc1ccc(F)c(C(F)(F)F)c1 (single isomer, unassigned) [Example 379]
Output the entries ranked by pEC50 from maximum down to minimum. Return value: ordered labels per request.
b, c, e, a, d
(b: 9.00, c: 8.52, e: 7.59, a: 7.19, d: 5.86)

[a] COc1ccc(-c2cc([C@H](O)C(F)(F)F)ccc2F)cc1C(=O)N[C@H]1[C@@H](C(=O)Nc2ccc(F)c(C(F)(F)F)c2)[C@H]2CC[C@@H]1/C2=C\C1CCCC1 [compound 920]
[b] COc1ccc(C2CN(C(=O)N3CCC(O)CC3)C2)cc1C(=O)N[C@H]1[C@@H](C(=O)Nc2ccc(F)c(C(F)(F)F)c2)[C@H]2CC[C@@H]1/C2=C\C1CC1 [compound 527]
Lab note: check whether a or b has the lower measured pEC50. Provide the label of your selected option as the answer.
b
